biological target: T1, human CTLA4-Fc (R&D #7268-CT) (human, UniProt P16410 36-162); experiment: huCTLA4-Fc binding ELISA (luminescence)
T1 construct: Bought reagent coated on ELISA plates; also called human CTLA-Fc; not shown: Fc part of the bought fusion; not described
T1 sequence (P16410 36-162 limits assumed): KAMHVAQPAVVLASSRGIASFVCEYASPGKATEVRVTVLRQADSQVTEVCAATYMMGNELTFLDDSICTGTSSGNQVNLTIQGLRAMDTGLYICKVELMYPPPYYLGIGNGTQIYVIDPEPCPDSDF
readout-type: pEC50
The quantity pEC50 is defined as the negative base-10 logarithm of the molar concentration.

Lab note: measured pEC50 of Antibody 1-1 (version of humanized anti-CTLA4 Antibody 1 having a wild-type Fc region) (antibody, V domains shown, VL 25 / VH 26 are inferred from the parallel a)/b) order of the embodiments and because 30/31 go with the CDRs of Antibody 2; Full antibody with wild-type Fc) VH: QVQLQESGPGLVKPSETLSLTCSVTYHTITSGYDWTWIRKPPGKGMEWIGYISYSGNTNYNPSLKSRVTISRDTSKNQFFLKLSSVTAADTAVYYCASMMVPHYYVMDAWGQGTLVTVSSA VL: DIVMTQTPLSLSVTPGQPASISCRSSQSLLNSDGNTYLYWYLQKPGQSPQLLIYLVSKLGSGVPNRFSGSGSGTDFTLKISRVEAEDVGVYYCVQGTHDPWTFGGGTKVEIKR was 9.39
